Assay Comment: yeast display, Sf9 membrane polyspecificity reagent, FACS + sequencing; frameworks hold sequencing errors
Property Name: polyreactivity (PSR sort gate)

Input Sequence	Experimental Result
QDQLVESAGGIVQAGGRLRLSCAASGTLYINVMGWYRQSPGKERELVAAISSNGARTYYADSVKGRFTISRDNAKNTVYLQMNSLKPEDTAVYYCDASFYFYSLYGYWGQGTQVTVSS	high polyreactivity
QVQLVESGGGLVQAGGSLRLSCAASGFIFKDNAMGWYRQAPGKERELVAVSSGTGVRTNYADSVKGRFTISRDNAKNTVYLQMNSLKPEDSAVYYCIADTYRRAQLRFNSWGQGTQVTVSS	low polyreactivity
QVQLVESGGGLVQAGGILRLSCAASGLIFGYYDMGWYRQARGKEREFVAGITYRGSSTYYADSVKGRFTISRDNAKNTVYLQMNSLKPEDTAVYYCAKYKRKKLTTNYYYWGQGTQVTVSS	high polyreactivity
QVQLVESGGGLVQAGGSLRLSCAASGNIFWRYAMGWYRQAPGKERELVAAISRRGGSTYYADSVKGRFTISRDNAKNTVYLQMNSLKPEDTAVYYCAASHSTWFSDPYGYWGQGTQVTVSS	low polyreactivity
QVQLVESGGGLVQAGGSLRLSCAASGSIFYVYTMGWYRQAPGKERELVAAISSSAGSTYYADSVKGRFTISRDNAKNTVYLQMNSLKQEDTAVYYCAAKVRYSLRKYYYWGQGTQVTVSS	high polyreactivity

----------
Assay Comment: yeast display, Sf9 membrane polyspecificity reagent, FACS + sequencing; frameworks hold sequencing errors

Input Sequence	polyreactivity (PSR sort gate)
QVQLVESGGGLVQAGGSLRLSCAASGFTFGYYAMGWYRQAPGKERELVAAITWSGGRTYYADSVKGRFTISRDNAKNTVYLQMNSLKPEDTAVYYCAVETLWQGSEYWGQGTQVTVSS	low polyreactivity
QVQLVESGGGLVQAGGSLRLICAASGITFSVYTMGWYRQAPGKERELVAAIDSDGITNYADSVKGRFTISRDNAKNTVYLQLNSLKPEDTAVYYCAKQSGRADGVSGFDYWGQGTQVTVSS	low polyreactivity
QVQLVESGGGLVQAGGSLRLSCAASGRIFKSYAMGWYRQAPGKERELVAAISRSGGRTYYADSVKGRFTISRDNAKNTVYLQMNSLKPEDTAVYYCAATTFVAPYLGQGTQVTVSS	low polyreactivity
QVQLVESGVGLVQAGGSLRLSSAASGSISYSYAMGWYRQAPGKERELVAAITWVGDSTYYADSVKGRFTISRDNAKNTVYLQMNRQKPEDTAVYYCAADLRFTYPVYRHGGGYDYWGQGTQVTVSS	low polyreactivity
QVQLVESWGGLVQAGGSLRLSCAASGSTFSLYTMGWYRQAPGKERELVATIDSGGSTNYADSVKGRFTISRDNAKNTVYLQMNSLKPEDTAVYYCVDYYNGYTHNYNYWGQGTQVTVSS	low polyreactivity
QVQLVESGGGLVQAGGSLRLSCAASGRTFRRYAMGWYRQAPGKERELVAAISGDGSTHYADSVKGRFTISRDNAKNTVYLQMNSLKPEDTAVYYCAADYTDWYYVNYPAAPYRYDYWGQGTQVTVSS	high polyreactivity
QVQLVESGGGLVQAGGSLRLSCAASGSTFGPYAMGWYRQAPGKERELVADISGGSTNYADSVKGRFTISRDNAKNTVYLQMNSLKPEDTAVYYGAADSYPAYLGFVGFDYWGQGTQVTVSS	low polyreactivity
QVQLVESGGGLVQAGGSLRLSCAASGRILKYYAMGWYRQAPGKERELVAAITSDVNTYYADSVKGRFTISRDNAKNTVYLQMNSLKPEDTAVYYCNADADDYRDYQDYDYWGQGTQVTVSS	low polyreactivity
QVQLVESGGGLVQAGGSLRLSCAASGSIFGDYAMGWYRQAPGKERELVAAISRADGTYYADSVKGRFTISRDNAKNTVYLQMNSLKPEDTAVYYCATDYGIRSYYYSWYYVFTADDYWGQGTQVTVSS	low polyreactivity
QVQLVESGGGLVQAGGSLRLSCAASGFTFTYYTMGWYRQAPGKERELVAGISRSGGSTYYADSVKGRFTISRDNAKNTVYLQMNSLKPEDTAVYYCAAVVRSYSDRYDYWGQGTQVTVSS	high polyreactivity
QVQLVESGGGLVQAGGSLRLSCAASGSTFYPYAMGWYRQAPGKERELVAAITSGGRTYYADSVKGRFTISRDNAKNTVYLQMNSLKPEDTAVYYCAALQYRRLRDYRHDYWGQGTQVTVSS	high polyreactivity
